# protocol-description: AUC (0 to infinity) in dog at 10 mg/kg, iv administered as single dose
# Assay type: ADME, organism-based, Canis lupus familiaris
# Set-up: dose 10 mg/kg, time infinity, route intravenous
# test-context: in vivo
quantity: AUC(0-inf) (ng·h/mL)

>>> print(df.to_string())
                              smiles_string  unit_spec  number
0  O[C@H](C[C@H]1c2c(F)cccc2-c2cncn21)[C@H]1CC[C@H](O)CC1    ng·h/mL    3130

---

# protocol-description: Cmax in C57Bl6 mouse at 100 mg/kg, po administered as single dose
# Type: ADME, organism-based
# Parameters: dose 100 mg/kg, route oral
# test-context: in vivo
quantity: Cmax (ng/mL)

                              smiles_string  number
0  O[C@H](C[C@H]1c2c(F)cccc2-c2cncn21)[C@H]1CC[C@H](O)CC1   14200
